Tested on: DLD-1
assay_summary: In vitro APC inhibition assay (MTT), DLD-1
Assay type: cell-based
condition_description: Homo sapiens, DLD-1, DLD-1 (truncated APC)
measurement_kind: IC50 (nM)
One number for each entry, in nM.

# example entries with known answers
COc1ccc(S(=O)(=O)N2CCC(N3CCC(C)CC3)CC2)c(OC)c1 ... 41
CC1CCN(C2CCN(S(=O)(=O)c3cccc4c3OCCO4)CC2)CC1 ... 10

For every item below, please supply its IC50.
1. O=S(=O)(c1ccc(OC(F)(F)F)cc1)N1CCC(N2CCOCC2)CC1
2. CC1CCN(C2CCN(S(=O)(=O)c3ccc(Oc4ccccc4)cc3)CC2)CC1
3. CC1CCCN(C2CCN(S(=O)(=O)c3ccc(OC(F)(F)F)cc3)CC2)C1 (centres unmarked)
4. CC1CCN(C2CCN(S(=O)(=O)c3c(C(C)C)cc(C(C)C)cc3C(C)C)CC2)CC1
5. CC1CCCN(C2CCN(S(=O)(=O)c3ccc(F)cc3)CC2)C1 (centres unmarked)
6. CC1CCCN(C2CCN(S(=O)(=O)c3ccc(C(F)(F)F)cc3)CC2)C1 (centres unmarked)

[501, 253, 31, 0.7, 255, 29]

For every item below, please supply its IC50.
1. CC1CCN(C2CCN(S(=O)(=O)c3cccc(OC(F)(F)F)c3)CC2)CC1
2. CC1CCCN(C2CCN(S(=O)(=O)c3ccc(Oc4ccccc4)cc3)CC2)C1 (centres unmarked)
3. CC1CCN(C2CCN(S(=O)(=O)c3ccccc3OC(F)(F)F)CC2)CC1
4. Cc1cc(C)c(S(=O)(=O)N2CCC(N3CCCC3)CC2)c(C)c1

56
244
421
172
